assay: Hydrolysis of Pertuzumab conjugated samples obtained using different small molecule compounds, hydrolysis percentage by Native MS; assay type: physicochemical; conditions: hydrolysis system C: 50 mM potassium dihydrogen phosphate-dipotassium hydrogen phosphate buffer, pH 7.8; 1 h
observation.type: 1 h hydrolysis percentage
Answer with the value and then the unit.

Exercise: // 1 h hydrolysis percentage lookup, key: CCC(C)[C@@H]([C@@H](CC(=O)N1CCC[C@H]1[C@H](OC)[C@@H](C)C(=O)N[C@H](C)[C@@H](O)c1ccccc1)OC)N(C)C(=O)[C@@H](NC(=O)[C@H](C(C)C)N(C)C(=O)OCc1ccc(NC(=O)[C@H](CCCNC(N)=O)NC(=O)[C@@H](NC(=O)COCCOCCOCCOc2c(F)cc(N3C(=O)C(Sc4ccccc4)=C(Sc4ccccc4)C3=O)cc2F)C(C)C)cc1)C(C)C (stereo partly shown) [A-3]
Solution: 92.52%
